System: 362531-283-R-J2-PDC complex spheroid viability
TEST_PROTOCOL: Anticancer human tumor 362531-283-R-J2-PDC patient-derived colon adenocarcinoma cell line growth inhibition [RAS]
ASSAY_SETUP: second compound 10 µM; first compound 10 µM; stronger effect = lower value
// boundary case: viability, T/C equal to 4% maps to n; strictly smaller maps to y

Problem: For the molecule CC(Nc1ccc2c(c1)OCCn1cc(N3C(=O)OCC3C(F)F)nc1-2)C(N)=O (stereo not drawn) + C#Cc1c(F)ccc2cc(O)cc(-c3ncc4c(N5CC6CCC(C5)N6)nc(OCC56CCCN5CC(F)C6)nc4c3F)c12 , is viability, T/C under 4%?
Solution: y

Problem: Ok, now NC1c2ccccc2OC12CCN(c1cnc3c(N4CCCc5ncccc54)n[nH]c3n1)CC2 (stereo not drawn) + C#Cc1c(F)ccc2cc(O)cc(-c3ncc4c(N5CC6CCC(C5)N6)nc(OCC56CCCN5CC(F)C6)nc4c3F)c12
Solution: y

Problem: Ok, now C[C@@H](NC(=O)c1ncnc(N)c1Cl)c1ncc(C(=O)Nc2cc(C(F)(F)F)c(Cl)cn2)s1 + C#Cc1c(F)ccc2cc(O)cc(-c3ncc4c(N5CC6CCC(C5)N6)nc(OCC56CCCN5CC(F)C6)nc4c3F)c12
Solution: n

Problem: Ok, now CCC(CC)c1cc(NC2CCC(N)C2)n2nccc2n1 (stereo not drawn) + C#Cc1c(F)ccc2cc(O)cc(-c3ncc4c(N5CC6CCC(C5)N6)nc(OCC56CCCN5CC(F)C6)nc4c3F)c12
Solution: n

Problem: Ok, now CC(=O)OC12COC1CC(O)C1(C)C(=O)C(O)C3=C(C)C(OC(=O)C(O)C(NC(=O)OC(C)(C)C)c4ccccc4)CC(O)(C(OC(=O)c4ccccc4)C21)C3(C)C (stereo not drawn) + C#Cc1c(F)ccc2cc(O)cc(-c3ncc4c(N5CC6CCC(C5)N6)nc(OCC56CCCN5CC(F)C6)nc4c3F)c12
Solution: n

Problem: Ok, now CC(C)NCC(C(=O)N1CCN(c2ncnc3c2C(C)CC3O)CC1)c1ccc(Cl)cc1 (stereo not drawn) + C#Cc1c(F)ccc2cc(O)cc(-c3ncc4c(N5CC6CCC(C5)N6)nc(OCC56CCCN5CC(F)C6)nc4c3F)c12
Solution: n

Problem: Ok, now CC1(O)CCCC1n1c(=O)c(C(F)F)cc2cnc(NC3CCN(S(C)(=O)=O)CC3)nc21 (stereo not drawn) + C#Cc1c(F)ccc2cc(O)cc(-c3ncc4c(N5CC6CCC(C5)N6)nc(OCC56CCCN5CC(F)C6)nc4c3F)c12
Solution: n

###

What viability, T/C was measured for each of the following?
System: 362531-283-R-J2-PDC complex spheroid viability
TEST_PROTOCOL: Anticancer human tumor 362531-283-R-J2-PDC cell line growth inhibition [RAS];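 also: spheroids exposed to the agents for 7 days before readout; luminescence viability as percent of DMSO vehicle control wells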
ASSAY_SETUP: second compound 1 µM; first compound 0.0316 µM; stronger effect = lower value
Report only the number, with the unit % understood.

Problem: Dear colleague, I am looking for the recorded viability, T/C of the following compound: CC(C)n1nc(-c2ccc3oc(N)nc3c2)c2c(N)ncnc21 + C#Cc1c(F)ccc2cc(O)cc(-c3ncc4c(N5CC6CCC(C5)N6)nc(OCC56CCCN5CC(F)C6)nc4c3F)c12
Solution: 45.9

Problem: Ok, now C[C@@H](NC(=O)c1ncnc(N)c1Cl)c1ncc(C(=O)Nc2cc(C(F)(F)F)c(Cl)cn2)s1 + C=CC(=O)N1CCN(c2nc(OCC3CCCN3C)nc3c(F)c(-c4nc(N)cc(C)c4C(F)(F)F)c(Cl)cc23)C(C)C1
Solution: 107

Problem: Ok, now CC(=O)OC12COC1CC(O)C1(C)C(=O)C(O)C3=C(C)C(OC(=O)C(O)C(NC(=O)OC(C)(C)C)c4ccccc4)CC(O)(C(OC(=O)c4ccccc4)C21)C3(C)C (stereo not given) + C=CC(=O)N1CCN(c2nc(OCC3CCCN3C)nc3c(F)c(-c4nc(N)cc(C)c4C(F)(F)F)c(Cl)cc23)C(C)C1
Solution: 106

Problem: Ok, now CCC(CC)c1cc(NC2CCC(N)C2)n2nccc2n1 (stereo not given) + C#Cc1c(F)ccc2cc(O)cc(-c3ncc4c(N5CC6CCC(C5)N6)nc(OCC56CCCN5CC(F)C6)nc4c3F)c12
Solution: 80.4

Problem: Ok, now CC(C)NCC(C(=O)N1CCN(c2ncnc3c2C(C)CC3O)CC1)c1ccc(Cl)cc1 (stereo not given) + C#Cc1c(F)ccc2cc(O)cc(-c3ncc4c(N5CC6CCC(C5)N6)nc(OCC56CCCN5CC(F)C6)nc4c3F)c12
Solution: 79.9

###

System: 362531-283-R-J2-PDC complex spheroid viability
TEST_PROTOCOL: Anticancer human tumor 362531-283-R-J2-PDC cell line growth inhibition [RAS]; active = viability on the fitted dose curve at most 10% of control; inactive = the rest;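 also: spheroids exposed to the agents for 7 days before readout; luminescence viability as percent of DMSO vehicle control wells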
ASSAY_SETUP: second compound 10 µM; first compound 1 µM
Log the outcome using a class from active, inactive

Problem: Write down the call the test reported for this molecule. Item: CCN1CCN(Cc2ccc(Nc3ncc(F)c(-c4cc(F)c5nc(C)n(C(C)C)c5c4)n3)nc2)CC1 + C#Cc1c(F)ccc2cc(O)cc(-c3ncc4c(N5CC6CCC(C5)N6)nc(OCC56CCCN5CC(F)C6)nc4c3F)c12
Solution: inactive

Problem: Ok, now CC(C)NCC(C(=O)N1CCN(c2ncnc3c2C(C)CC3O)CC1)c1ccc(Cl)cc1 (stereo not given) + C#Cc1c(F)ccc2cc(O)cc(-c3ncc4c(N5CC6CCC(C5)N6)nc(OCC56CCCN5CC(F)C6)nc4c3F)c12
Solution: inactive

Problem: Ok, now CCC(CC)c1cc(NC2CCC(N)C2)n2nccc2n1 (stereo not given) + C#Cc1c(F)ccc2cc(O)cc(-c3ncc4c(N5CC6CCC(C5)N6)nc(OCC56CCCN5CC(F)C6)nc4c3F)c12
Solution: inactive

Problem: Ok, now NC1c2ccccc2OC12CCN(c1cnc3c(N4CCCc5ncccc54)n[nH]c3n1)CC2 (stereo not given) + C#Cc1c(F)ccc2cc(O)cc(-c3ncc4c(N5CC6CCC(C5)N6)nc(OCC56CCCN5CC(F)C6)nc4c3F)c12
Solution: active

Problem: Ok, now Nc1ccn(C2OC(CO)C(O)C2(F)F)c(=O)n1 (stereo not given) + C#Cc1c(F)ccc2cc(O)cc(-c3ncc4c(N5CC6CCC(C5)N6)nc(OCC56CCCN5CC(F)C6)nc4c3F)c12
Solution: inactive

###

What viability, T/C was measured for each of the following?
System: 362531-283-R-J2-PDC complex spheroid viability
TEST_PROTOCOL: Anticancer human tumor 362531-283-R-J2-PDC cell line growth inhibition [RAS];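 also: spheroids exposed to the agents for 7 days before readout; luminescence viability as percent of DMSO vehicle control wells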
ASSAY_SETUP: second compound 0.3 µM; first compound 1 µM; stronger effect = lower value

Problem: Dear colleague, I am looking for the recorded viability, T/C of the following compound: Nc1ccn(C2OC(CO)C(O)C2(F)F)c(=O)n1 (configuration not stated) + CCn1c(-c2cc(N3CCN(C)CC3)cnc2C(C)OC)c2c3cc(ccc31)-c1csc(n1)CC(NC(=O)C1CC1C)C(=O)N1CCCC(N1)C(=O)OCC(C)(C)C2
Solution: 10.3%

Problem: Ok, now Nc1ccn(C2OC(CO)C(O)C2(F)F)c(=O)n1 (configuration not stated) + CCn1c(-c2cccnc2C(C)OC)c2c3cc(ccc31)N1CCOC(CC(NC(=O)C(C(C)C)N(C)C(=O)C3(F)CCN(C(=O)C#CC(C)(C)N(C)C)CC3)C(=O)N3CCCC(N3)C(=O)OCC(C)(C)C2)C1
Solution: 24.2%

###

Test system: 362531-283-R-J2-PDC complex spheroid viability
TEST_PROTOCOL: Anticancer human tumor 362531-283-R-J2-PDC cell line growth inhibition [RAS]; active = viability on the fitted dose curve at most 10% of control; inactive = the rest;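 also: spheroids exposed to the agents for 7 days before readout; luminescence viability as percent of DMSO vehicle control wells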
ASSAY_SETUP: second compound 0.3 µM; first compound 1 µM
Log the outcome using a class from true for active, false for inactive

Problem: Write down the call the test reported for this molecule. Item: CC(=O)OC12COC1CC(O)C1(C)C(=O)C(O)C3=C(C)C(OC(=O)C(O)C(NC(=O)OC(C)(C)C)c4ccccc4)CC(O)(C(OC(=O)c4ccccc4)C21)C3(C)C (stereo not drawn) + CCn1c(-c2cccnc2C(C)OC)c2c3cc(ccc31)N1CCOC(CC(NC(=O)C(C(C)C)N(C)C(=O)C3(F)CCN(C(=O)C#CC(C)(C)N(C)C)CC3)C(=O)N3CCCC(N3)C(=O)OCC(C)(C)C2)C1
Solution: false

Problem: Ok, now Cc1nc(N2CCC3(CC2)COC(C)C3N)c(CO)nc1Sc1ccnc(N)c1Cl (stereo not drawn) + CCn1c(-c2cccnc2C(C)OC)c2c3cc(ccc31)N1CCOC(CC(NC(=O)C(C(C)C)N(C)C(=O)C3(F)CCN(C(=O)C#CC(C)(C)N(C)C)CC3)C(=O)N3CCCC(N3)C(=O)OCC(C)(C)C2)C1
Solution: false

Problem: Ok, now CCN1CCN(Cc2ccc(Nc3ncc(F)c(-c4cc(F)c5nc(C)n(C(C)C)c5c4)n3)nc2)CC1 + CCn1c(-c2cccnc2C(C)OC)c2c3cc(ccc31)N1CCOC(CC(NC(=O)C(C(C)C)N(C)C(=O)C3(F)CCN(C(=O)C#CC(C)(C)N(C)C)CC3)C(=O)N3CCCC(N3)C(=O)OCC(C)(C)C2)C1
Solution: false

Problem: Ok, now O=C(c1ccc(F)c(F)c1Nc1ccc(I)cc1F)N1CC(O)([C@@H]2CCCCN2)C1 + CCn1c(-c2cc(N3CCN(C)CC3)cnc2C(C)OC)c2c3cc(ccc31)-c1csc(n1)CC(NC(=O)C1CC1C)C(=O)N1CCCC(N1)C(=O)OCC(C)(C)C2
Solution: true

Problem: Ok, now CCN1CCN(Cc2ccc(Nc3ncc(F)c(-c4cc(F)c5nc(C)n(C(C)C)c5c4)n3)nc2)CC1 + CCn1c(-c2cc(N3CCN(C)CC3)cnc2C(C)OC)c2c3cc(ccc31)-c1csc(n1)CC(NC(=O)C1CC1C)C(=O)N1CCCC(N1)C(=O)OCC(C)(C)C2
Solution: true

Problem: Ok, now C[C@@H](NC(=O)c1ncnc(N)c1Cl)c1ncc(C(=O)Nc2cc(C(F)(F)F)c(Cl)cn2)s1 + CCn1c(-c2cc(N3CCN(C)CC3)cnc2C(C)OC)c2c3cc(ccc31)-c1csc(n1)CC(NC(=O)C1CC1C)C(=O)N1CCCC(N1)C(=O)OCC(C)(C)C2
Solution: false

Problem: Ok, now CCC(CC)c1cc(NC2CCC(N)C2)n2nccc2n1 (stereo not drawn) + CCn1c(-c2cc(N3CCN(C)CC3)cnc2C(C)OC)c2c3cc(ccc31)-c1csc(n1)CC(NC(=O)C1CC1C)C(=O)N1CCCC(N1)C(=O)OCC(C)(C)C2
Solution: false

Problem: Ok, now O=C(c1ccc(F)c(F)c1Nc1ccc(I)cc1F)N1CC(O)([C@@H]2CCCCN2)C1 + CCn1c(-c2cccnc2C(C)OC)c2c3cc(ccc31)N1CCOC(CC(NC(=O)C(C(C)C)N(C)C(=O)C3(F)CCN(C(=O)C#CC(C)(C)N(C)C)CC3)C(=O)N3CCCC(N3)C(=O)OCC(C)(C)C2)C1
Solution: false
